- test.system: recombinant human TFPI (tissue factor pathway inhibitor) (human, UniProt P10646 29-304)
- protocol.description: cell-based or functional assay
A405, TF/FVIIa/FX complex assay, Ab 1.56 nM: recorded values
test.readout: A405, TF/FVIIa/FX complex assay, Ab 1.56 nM

clone 1023 (antibody, V domains shown, scFv on yeast at selection; human IgG4/kappa IgG as purified) VH: EVQLVESGGGLVKPGGSLRLSCAASGFTFSSYAMNWVRQAPGKGLEWVGTITTGGSYTYYADSVDGRFTISRDNAKNSLYLQMNSLRAEDTAVYYCARQDGNFLMDYWGQGTLVTVSS VL: DVVMTQTPLSLPVTLGQPASISCKSSQSLLDIDGKTYLNWLQQRPGQSPKRLIYLVSKLDSGVPDRFTGSGSGTDFTLKISRVEAEDVGVYYCWQGTHFPFTFGQGTKVEIKR : 0.041
clone 13 (antibody, V domains shown) VH: EVQLVESGGGLVKPGGSLRLSCAASGFTFSSYAMNWVRQAPGKGLEWVGTITTGGSHTYYADSVEGRFTISRDNAKNSLYLQMNSLRAEDTAVYYCARQDGNFLMDYWGQGTLVTVSS VL: DVVMTQTPLSLPVTLGQPASISCKSSPSLLDIDGKTYLNWLQQRPGQSPKRLIYLVSKLDSGVPDRFTGSGSGTDFTLKISRVEAEDVGVYYCWQGTHFPFTFGQGTKVEIKR : 0.046
clone 1202 (antibody, V domains shown, scFv on yeast at selection; human IgG4/kappa IgG as purified; also called No. 1202 antibody) VH: EVQLVESGGGLVKPGGSLRLSCAASGFTFSSYAMNWVRQAPGKGLEWVGTITTGGSYTYYADSVDGRFTISRDNAKNSLYLKMNSLRAEDTAVYYCARQDGNFLMDYWGQGTLVTVSS VL: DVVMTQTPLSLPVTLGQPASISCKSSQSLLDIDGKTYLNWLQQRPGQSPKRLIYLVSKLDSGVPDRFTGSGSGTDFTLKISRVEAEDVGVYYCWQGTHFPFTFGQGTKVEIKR : 0.043
clone 12 (antibody, V domains shown, human IgG4/kappa IgG as purified; also called No. 12 antibody) VH: EVQLVESGGGLVKPGGSLRLSCAASGFTFSSYAMNWVRQAPGKGLEWVGTITTGGSHTYYADSVEGRFTISRDNAKNSLYLQMNSLRAEDTAVYYCARQDGHFLMDYWGQGTLVTVSS VL: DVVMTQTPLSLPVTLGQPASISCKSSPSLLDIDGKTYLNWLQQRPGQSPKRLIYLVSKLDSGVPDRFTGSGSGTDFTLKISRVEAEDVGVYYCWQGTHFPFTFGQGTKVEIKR : 0.041

Provenance of the data: patent US20180030151A1
